Data credit: paper PMC3499988

Tested target: HIV-1 YU-2 gp120 (HIV-1 (YU-2), UniProt P35961)
Measurement description: SPR
Parameter: pKd
Answer as the number alone; pKd is minus log10 of concentration in mol/L.

Consider the worked cases shown below.
[[record]]
binder = "Fab m18 S64A (HCDR2) (Fab, V domains shown) VH: VQLLESGPGVVKPSETLSLTCTVSGASVNNYYWTWVRQPPGKGLEWIGNVYDSGDTNYNPSLASRLSLSMDTSKNQFSLRLSSVTAADTATYYCARYHRHFIRGPLSFDYWGRGTLVTVSS VL: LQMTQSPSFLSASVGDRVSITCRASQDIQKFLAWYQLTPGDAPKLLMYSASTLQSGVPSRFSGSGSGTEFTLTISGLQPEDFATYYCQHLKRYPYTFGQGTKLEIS"
result_value = 7.40

[[record]]
binder = "Fab m18 R100aE (HCDR3) (Fab, V domains shown) VH: VQLLESGPGVVKPSETLSLTCTVSGASVNNYYWTWVRQPPGKGLEWIGNVYDSGDTNYNPSLSSRLSLSMDTSKNQFSLRLSSVTAADTATYYCARYHRHFIEGPLSFDYWGRGTLVTVSS VL: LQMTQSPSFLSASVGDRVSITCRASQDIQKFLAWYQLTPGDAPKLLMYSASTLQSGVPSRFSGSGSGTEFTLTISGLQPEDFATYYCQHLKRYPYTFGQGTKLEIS"
result_value = 7.16


Okay, now this binder:
*Q* Any idea what pKd was measured for Fab m18 S54A (HCDR2) (Fab, V domains shown) VH: VQLLESGPGVVKPSETLSLTCTVSGASVNNYYWTWVRQPPGKGLEWIGNVYDAGDTNYNPSLSSRLSLSMDTSKNQFSLRLSSVTAADTATYYCARYHRHFIRGPLSFDYWGRGTLVTVSS VL: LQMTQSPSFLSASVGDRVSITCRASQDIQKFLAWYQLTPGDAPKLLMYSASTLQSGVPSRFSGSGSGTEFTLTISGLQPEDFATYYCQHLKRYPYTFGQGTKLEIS ?
*A* 7.25
